Origin of measurements: patent US20230157952A1

METHOD_SUMMARY: Effect of pH value on the stability of the solution (purity)
Type: physicochemical
CONDITION_SET: day 28, pH 4.0, 7% in 25% ethanol, 25° C.
Task for the reader: assign each of the following compounds its reported Purity(%) from day 0-28.
Give bare numbers, in %.

compound="CC(C)Cc1ccc([C@@H](C)C(=O)OCCN2CCCC2)cc1.Cl (racemic)" measured_parameter="Purity(%) from day 0-28" test_result=96.3
compound="CC(C)Cc1ccc([C@@H](C)C(=O)OCCC2CCNCC2)cc1.Cl (racemic)" measured_parameter="Purity(%) from day 0-28" test_result=96.1
compound="CC(C)Cc1ccc([C@@H](C)C(=O)OCCN(C)C)cc1.Cl (racemic)" measured_parameter="Purity(%) from day 0-28" test_result=96.6
compound="CCCCN(CCCC)CCOC(=O)C(C)c1ccc(CC(C)C)cc1.Cl (racemic)" measured_parameter="Purity(%) from day 0-28" test_result=97.3
compound=CC(C)Cc1ccc([C@@H](C)C(=O)OC[C@@H]2CCCN2)cc1.Cl measured_parameter="Purity(%) from day 0-28" test_result=95.8

Now let's try a different one.
QUERY: Provide one value: measured Purity(%) from day 0-28 of CC(C)Cc1ccc(C(C)C(=O)OCCN2CCCCC2)cc1.Cl (racemic)
RESULT: 95.8

* * *

For each entry below, report its Purity (%) at Day 7 value.
METHOD_SUMMARY: Effect of concentration on the stability of the solution (purity over time)
CONDITION_SET: 0.1 wt % in 50% ethanol, 25° C.
One number for each entry, in %.

Sample records with Purity (%) at Day 7:
compound="CC(C)(C)OC(=O)C(N)Cc1ccccc1 (centres unmarked) [t-Butyl 2-amino-3-phenylpropanoate, reference compound]" unit=% test_result=91.4
compound="CC(C)OC(=O)C(N)Cc1ccccc1 (centres unmarked) [Isopropyl 2-amino-3-phenylpropanoate, reference compound]" unit=% test_result=97.3
compound="CC(C)(C)OC(=O)c1ccccc1 [t-Butyl benzoate, reference compound]" unit=% test_result=0.0
compound="CC(C)OC(=O)c1ccccc1 [Isopropyl benzoate, reference compound]" unit=% test_result=98.4

Continue with the compound presented below.
QUERY: Indicate its recorded Purity (%) at Day 7; the compound in question is CCOC(=O)c1ccccc1 [Ethyl benzoate, reference compound]
RESULT: 97.5

* * *

Provide the reported Purity(%) at day 21 (25° C.) of each item.
METHOD_SUMMARY: Effect of temperature (and pH) on the stability of the solution (purity)
Assay type: physicochemical
CONDITION_SET: 7% solution in water, pH 4.3, day 21, 25° C.
Numbers only, in %.

compound=CCN(CC)CCOC(=O)COC(=O)Cc1c(C)n(C(=O)c2ccc(Cl)cc2)c2ccc(OC)cc12.Cl test_result=97.5
compound=CCN(CC)CCOC(=O)CCc1ccc2cc(OC)ccc2c1.Cl test_result=97.6
compound=CCN(CC)CCOC(=O)COc1nn(Cc2ccccc2)c2ccccc12.Cl test_result=95.5
compound=CCN(CC)CCOC(=O)CCc1nc(-c2ccccc2)c(-c2ccccc2)o1.Cl test_result=95.2
compound="CCN(CC)CCOC(=O)C(C)c1ccc2oc(-c3ccc(Cl)cc3)nc2c1.Cl (centres unmarked)" test_result=96.7

# per-item lookup of Purity(%) at day 21 (25° C.); items listed below
1. CCN(CC)CCOC(=O)CC1=C(C)C(=Cc2ccc([S+](C)[O-])cc2)c2ccc(F)cc21.Cl (centres unmarked)
2. CCN(CC)CCOC(=O)Cc1c(C)n(C(=O)c2ccc(Cl)cc2)c2ccc(OC)cc12.Cl
3. CCN(CC)CCOC(=O)Cc1ccc(C(=O)c2ccc(C)cc2)n1C.Cl

RESULT:
96.7
97.3
95.4
